EXPERIMENT DESCRIPTION: Gel time by Brookfield viscosity (time to 2500 cps), masterbatch of Examples 1-8 and A-J
Set-up: unit: min
CONDITION DESCRIPTION: 0.16%Sn; 130°C; time to reach 2500 cps (gel times in mins)
Attribute: GEL TIME @ 130°C

{"columns": ["COMPOUND", "GEL TIME @ 130°C"],
 "data": [
  ["CCC[CH2][Sn](=[O])[CH2]CCC [C, Dibutyl Sn Oxide, reference compound]", 23.2],
  ["CCC[CH2][Sn]([CH2]CCC)([O]C(C)=O)[O]C(C)=O [B, Dibutyl Sn Diacetate, reference compound]", 21.2],
  ["CCCCCCCCCCCC(=O)[O][Sn]([CH2]CCC)([CH2]CCC)[O]C(=O)CCCCCCCCCCC [A, Dibutyl Sn Dilaurate, reference compound]", 22.2],
  ["CCC[CH2][Sn]([CH2]CCC)([O]C(C)=O)[O][Sn]([CH2]CCC)([CH2]CCC)[O]C(C)=O [D, Dibutyl Diacetoxy Stannox n=0, reference compound]", 18.6]
]}
